biological target: human RORγt LBD (Homo sapiens); assay: RORγt reporter assay (GAL4-RORγt LBD luciferase in HEK293T cells); conditions: HEK293T cells, 24 hours compound treatment
Readout name: IC50 (nM)

>>> number("Cn1cncc1C(O)(c1ccc(Cl)cc1)c1ccc2nc(Cl)c(-c3ccccc3Cl)c(Cl)c2c1 (single isomer, unassigned) [Example 153c]")
140
>>> number("CC(C)(C)OC(=O)N1CCC(C(O)(c2cccnc2)c2ccc3nc(Cl)c(-c4ccccc4)c(Cl)c3c2)CC1 (stereo not shown)")
200
>>> number("Cn1cncc1C(O)(c1ccc(Cl)nc1)c1ccc2nc(Cl)c(-c3ccccc3)c(Cl)c2c1 (stereo not shown)")
85
>>> number("COc1cccc(C(O)(c2cccnc2)c2ccc3nc(Cl)c(-c4ccccc4)c(Cl)c3c2)c1 (stereo not shown)")
150

* * *

Examples of compounds with documented log10 IC50 follow.
Molecular target: human RORγt LBD (Homo sapiens)
Sequence (P51449 258-518): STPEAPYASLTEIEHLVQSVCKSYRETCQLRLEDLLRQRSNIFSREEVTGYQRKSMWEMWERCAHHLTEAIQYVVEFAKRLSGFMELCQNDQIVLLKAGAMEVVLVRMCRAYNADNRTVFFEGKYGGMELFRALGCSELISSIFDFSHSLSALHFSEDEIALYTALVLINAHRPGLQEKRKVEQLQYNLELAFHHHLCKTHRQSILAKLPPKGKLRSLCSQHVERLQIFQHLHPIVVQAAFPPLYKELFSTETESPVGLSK
Experiment: RORγt reporter assay (GAL4-RORγt LBD luciferase in HEK293T cells)
Conditions: HEK293T cells, 24 hours compound treatment
Readout name: log10 IC50 (log10 of the value in nM)

>>> number("COc1nc2c(C)cc(C(O)(c3ccc(F)cc3)c3cncn3C)cc2c(C#N)c1-c1cccc(F)c1 (single isomer, unassigned) [Example 180c]")
2.23
>>> number("CC(C)Oc1nc2ccc(C(O)(c3cccnc3)c3cccc(Cl)c3)cc2c(Cl)c1-c1ccccc1 (stereo not shown)")
2.95
>>> number("O=C(O)C(F)(F)F.OC(c1cccnc1)(c1cccc(Cl)c1)c1ccc2nc(C(F)(F)F)c(-c3ccccc3)c(C(F)(F)F)c2c1 (stereo not shown)")
1.68
>>> number("Cc1cc(C(O)(c2ccc(C(F)(F)F)nc2)c2cncn2C)cc2c(C#N)c(-c3cccc(F)c3)c(C#N)nc12 (single isomer, unassigned) [Example 176c]")
2.51
>>> number("Cn1cncc1C(O)(c1ccncc1)c1ccc2nc(C(F)(F)F)c(-c3ccccc3)c(C(F)(F)F)c2c1 (stereo not shown)")
1.26

* * *

Examples of compounds with documented pIC50 follow.
molecular target: human RORγt LBD (Homo sapiens, UniProt P51449); assay: RORγt reporter assay (GAL4-RORγt LBD luciferase in HEK293T cells); conditions: HEK293T cells, 24 hours compound treatment
pIC50: −log10 of the molar value.
Readout name: pIC50

>>> number("Cc1nc(C(O)(c2ccc3nc(Cl)c(-c4ccccc4)c(Cl)c3c2)c2cncn2C)cs1 (stereo not drawn) [Example 140]")
6.49
>>> number("Cc1ccc(C(O)(c2cc(C)c3nc(Cl)c(-c4ccccc4)c(Cl)c3c2)c2cncn2C)cn1 (stereo not drawn) [Example 156]")
6.49
>>> number("CC(C)Oc1nc2ccc(C(O)(c3ccncc3)c3cncn3C)cc2c(N(C)C)c1-c1ccccc1 (stereo not drawn) [Example 90]")
6.52
>>> number("Cn1cncc1C(O)(c1cncnc1)c1ccc2nc(Cl)c(-c3ccccc3)c(Cl)c2c1 (stereo not drawn) [Example 120]")
6.77
>>> number("COc1ccc(C(O)(c2cccnc2)c2ccc3nc(Cl)c(-c4ccccc4)c(Cl)c3c2)cc1 (stereo not drawn) [Example 55]")
6.09
>>> number("OC(c1ccccc1)(c1cccnc1)c1ccc2nc(C(F)(F)F)c(-c3ccccc3)c(C(F)(F)F)c2c1 (stereo not drawn) [Example 170]")
7.46
>>> number("Cn1cncc1C(O)(c1ccncc1)c1ccc2nc(N3CCOCC3)c(-c3ccccc3)c(Cl)c2c1 (stereo not drawn) [Example 20]")
6.48
>>> number("Cc1ccc(C(O)(c2cccc(Cl)c2)c2ccc3nc(Cl)c(-c4ccccc4)c(Cl)c3c2)cn1 (stereo not drawn) [Example 70]")
7.33
>>> number("CN(C)c1c(-c2ccccc2)c(Cl)nc2ccc(C(O)(c3cccnc3)c3cncn3C)cc12 (stereo not drawn) [Example 35]")
6.47
>>> number("OC(c1ccncc1)(c1ccncc1)c1ccc2nc(Cl)c(-c3ccccc3)c(Cl)c2c1 [Example 21]")
6.07
>>> number("COc1nc2c(C)cc(C(O)(c3ccc(F)cc3)c3cncn3C)cc2c(Cl)c1-c1cccc(F)c1 (single isomer, unassigned) [Example 178c]")
7.46
>>> number("COc1cccc(C(O)(c2ccc(Cl)nc2)c2ccc3nc(Cl)c(-c4ccccc4)c(Cl)c3c2)c1 (stereo not drawn) [Example 65]")
6.80
>>> number("CC(=O)N1CCC(C(O)(c2ccc3nc(C(F)(F)F)c(-c4ccccc4)c(C(F)(F)F)c3c2)c2cncn2C)CC1 (racemic) [Example 181a]")
6.85
>>> number("OC(c1ccc(Cl)cc1)(c1cccnc1)c1ccc2nc(Cl)c(-c3ccccc3)c(Cl)c2c1 (stereo not drawn) [Example 17]")
6.57
>>> number("COC(c1ccc2nc(Cl)c(-c3ccccc3)c(Cl)c2c1)(c1cnccn1)c1cncn1C (stereo not drawn) [Example 127]")
5.80
>>> number("Cn1nncc1C(O)(c1ccc(Cl)cc1)c1ccc2nc(Cl)c(-c3ccccc3)c(Cl)c2c1 (stereo not drawn) [Example 144]")
6.28
>>> number("Cn1cncc1C(O)(c1ccncc1)c1ccc2nc(Cl)c(-c3ccccc3)c(Cl)c2c1F (stereo not drawn) [Example 162]")
6.04
>>> number("CCCCN(C)c1nc2ccc(C(O)(c3ccncc3)c3cncn3C)cc2c(Cl)c1-c1ccccc1 (stereo not drawn) [Example 76]")
8.31
>>> number("COc1ccc(C(O)(c2ccc3nc(Cl)c(-c4ccccc4)c(Cl)c3c2)c2cc(C)no2)cn1 (stereo not drawn) [Example 131]")
7.04
>>> number("OC(c1ccc(Cl)nc1)(c1cccc(F)c1)c1ccc2ncc(-c3ccccc3)c(Cl)c2c1 (stereo not drawn) [Example 61]")
5.70
>>> number("CC(=O)N1CCC(C(O)(c2ccccc2)c2ccc3nc(C(F)(F)F)c(-c4ccccc4)c(C(F)(F)F)c3c2)CC1 (single isomer, unassigned) [Example 169c]")
7.00
>>> number("Cn1c(C(O)(c2ccc(Cl)cc2)c2ccc3nc(Cl)c(-c4ccccc4)c(Cl)c3c2)cnc1Cl (stereo not drawn) [Example 141]")
6.68
>>> number("CCN(CC)c1c(-c2ccccc2)c(Cl)nc2ccc(C(O)(c3cccnc3)c3cccc(Cl)c3)cc12 (stereo not drawn) [Example 101]")
6.19
>>> number("Cn1cncc1C(O)(c1ccncc1)c1cc(F)c2nc(Cl)c(-c3ccccc3)c(Cl)c2c1 (stereo not drawn) [Example 155]")
6.96
